target: biot-MPV-F D280N (metapneumovirus (MPV)); test: BLI (Octet), biotinylated F on SA sensors, mAb 5 µg/ml
pKd: −log10 of the molar value.
measurement kind: pKd

INSERT INTO assay_data (binder, measurement_kind, numeric_value) VALUES
  ('MPK77-rIgG1-LS (antibody, V domains shown) VH: EVQLVESGGGLVKPGGSLRLSCAASKSFSGYYMIWIRQAPGRGLEWIADISGSSTYTDYADSVKGRFTISRDNTRNTLYLQMNSLRPEDTAVYYCATEQVPSPGPFDLWGPGTLVTVSS VL: QSVLTQPPSVSGAPGQRVIISCTGSSSNIGAGYDVHWYQQFPGTSPKLLIYRNTNRPSGVPDRFSGFKSGASAALAITGLQAEDEADYYCQSYDRSLSGWAFGGGTKVTVL', 'pKd', 9.40),
  ('MPK190-v1.1-rIgG1m17,1-LS (antibody, V domains shown) VH: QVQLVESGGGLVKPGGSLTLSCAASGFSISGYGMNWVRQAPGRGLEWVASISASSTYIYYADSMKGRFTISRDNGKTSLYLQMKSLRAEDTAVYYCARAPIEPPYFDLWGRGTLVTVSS VL: QSVLTQPPSVSGAPGQRVTISCTGSNSNIGAGYDVHWYQHLPGKAPKVLIYGNNNRPSVVPDRFSGSNSGASASLAISGLQAEDEADYFCQSYDRRLSGPIFGGGTKLTVL', 'pKd', 9.44),
  ('MPH12-rIgG1-LS (antibody, V domains shown) VH: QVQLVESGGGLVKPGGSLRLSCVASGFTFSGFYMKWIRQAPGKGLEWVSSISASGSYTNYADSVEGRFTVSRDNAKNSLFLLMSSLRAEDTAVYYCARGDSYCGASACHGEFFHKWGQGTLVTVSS VL: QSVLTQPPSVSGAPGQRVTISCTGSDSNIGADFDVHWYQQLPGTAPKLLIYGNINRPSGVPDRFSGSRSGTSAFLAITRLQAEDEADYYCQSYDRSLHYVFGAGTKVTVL', 'pKd', 9.00),
  ('MPK104-v1.3-rIgG1m17,1-LS (antibody, V domains shown) VH: QVQLVESGGGLVKPGGSLRLSCAASGFTIDGYGMNWVRQAPGKGLEWVSSISASSNYIYYADSMKGRFTISRDNGKNSLYLQMHSLRVEDTGVYYCARAPLEPPYFDLWGRGTLVTVSS VL: QSVLTQPPSVSGAPGQRVTISCSGGSSNIGAGYDVHWYQQVPGKGPKVLIYGNTNRPSGVPDRFSGSNFGASASLAITGLQAEDEADYFCQSYDRRLGGPVFGGGTKLTVL', 'pKd', 9.43);
